measured-on: human adenosine A1 receptor (Homo sapiens)
Sequence (P30542 1-326): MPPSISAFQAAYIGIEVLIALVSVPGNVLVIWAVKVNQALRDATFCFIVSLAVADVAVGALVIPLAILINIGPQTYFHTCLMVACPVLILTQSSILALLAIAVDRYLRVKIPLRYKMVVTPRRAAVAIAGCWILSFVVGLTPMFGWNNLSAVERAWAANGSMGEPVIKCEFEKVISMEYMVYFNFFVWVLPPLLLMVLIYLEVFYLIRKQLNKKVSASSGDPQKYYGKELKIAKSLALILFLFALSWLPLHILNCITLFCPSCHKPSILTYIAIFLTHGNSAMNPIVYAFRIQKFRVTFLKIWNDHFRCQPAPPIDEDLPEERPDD
Exam item: assign condition met to entries whose Ki is below 10 nM and condition not met to entries at or above 10 nM. Note that a value of exactly 10 nM receives condition not met.

compound	measured-on	class
CCC(=O)Nc1cc(-c2ccccc2)nc(-c2ccccc2)n1 [Compound 15]	human adenosine A1 receptor (Homo sapiens)	condition met
CC(=O)Nc1cc(-c2ccccc2)nc(-c2ccccc2)n1 [Compound 14]	human adenosine A1 receptor (Homo sapiens)	condition not met
O=C(Nc1cc(-c2ccccc2)nc(-c2ccccc2)n1)C1CCCC1 [Compound 24]	human adenosine A1 receptor (Homo sapiens)	condition met
CC(C)CC(=O)Nc1cc(-c2ccccc2)nc(-c2ccccc2)n1 [Compound 18]	human adenosine A1 receptor (Homo sapiens)	condition not met
O=C(Nc1cc(-c2ccccc2)nc(-c2ccccc2)n1)c1ccccc1 [Compound 13]	human adenosine A1 receptor (Homo sapiens)	condition not met
CCCC(=O)Nc1cc(-c2ccccc2)nc(-c2ccccc2)n1 [Compound 16]	human adenosine A1 receptor (Homo sapiens)	condition not met
CCC(C)C(=O)Nc1cc(-c2ccccc2)nc(-c2ccccc2)n1 (centres unmarked) [Compound 20]	human adenosine A1 receptor (Homo sapiens)	condition met
CCC(CC)C(=O)Nc1cc(-c2ccccc2)nc(-c2ccccc2)n1 [Compound 19]	human adenosine A1 receptor (Homo sapiens)	condition met
